# TARGET_SYSTEM: T1, IL10Rα/IL2Rγ receptor (human) (UniProt Q13651)
# T1 sequence (looked up) 1: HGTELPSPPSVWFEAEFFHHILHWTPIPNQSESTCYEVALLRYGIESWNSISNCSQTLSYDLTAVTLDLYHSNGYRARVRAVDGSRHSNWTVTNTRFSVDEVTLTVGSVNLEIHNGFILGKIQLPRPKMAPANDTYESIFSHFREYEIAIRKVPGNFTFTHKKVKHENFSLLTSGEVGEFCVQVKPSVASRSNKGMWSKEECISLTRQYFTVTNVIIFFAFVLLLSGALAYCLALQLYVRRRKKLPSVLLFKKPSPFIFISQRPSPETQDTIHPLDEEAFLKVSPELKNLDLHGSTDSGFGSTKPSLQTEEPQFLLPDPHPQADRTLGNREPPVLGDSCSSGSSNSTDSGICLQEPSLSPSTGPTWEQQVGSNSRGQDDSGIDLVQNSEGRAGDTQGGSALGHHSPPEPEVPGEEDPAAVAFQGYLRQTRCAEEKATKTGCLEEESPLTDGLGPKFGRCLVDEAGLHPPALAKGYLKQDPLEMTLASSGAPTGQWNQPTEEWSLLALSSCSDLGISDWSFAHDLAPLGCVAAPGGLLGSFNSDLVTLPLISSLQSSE
# T1 sequence (looked up) 2: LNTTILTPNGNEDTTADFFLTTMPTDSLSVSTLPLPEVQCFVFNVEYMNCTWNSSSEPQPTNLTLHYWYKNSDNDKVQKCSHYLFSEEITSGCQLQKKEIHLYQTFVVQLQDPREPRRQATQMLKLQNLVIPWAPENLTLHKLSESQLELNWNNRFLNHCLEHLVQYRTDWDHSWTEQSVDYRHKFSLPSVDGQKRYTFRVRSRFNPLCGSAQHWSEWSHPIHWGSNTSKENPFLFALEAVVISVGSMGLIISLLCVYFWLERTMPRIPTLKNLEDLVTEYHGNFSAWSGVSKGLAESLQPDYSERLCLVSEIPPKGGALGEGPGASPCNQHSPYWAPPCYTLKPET
# ASSAY_NAME: cell-based or functional assay
READOUT_LABEL: IL-1β secretion, LPS treated monocytes, at 0.01 µM (pg/mL)
Value expressed in pg/mL; do not type the unit.

BINDER: hIL10Ra_VHH14 - hIL2Rg_VHH19, linker GS, tag his (bispecific antibody, not shown: small tags and cut ends) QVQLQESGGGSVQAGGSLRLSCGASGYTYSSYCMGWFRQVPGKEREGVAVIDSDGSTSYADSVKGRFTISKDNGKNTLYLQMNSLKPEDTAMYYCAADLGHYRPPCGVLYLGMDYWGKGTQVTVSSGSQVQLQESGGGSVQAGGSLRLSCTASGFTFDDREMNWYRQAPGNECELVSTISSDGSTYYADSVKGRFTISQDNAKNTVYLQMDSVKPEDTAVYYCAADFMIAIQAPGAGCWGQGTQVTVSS
MEAS_VALUE: 5060

Recorded IL-1β secretion, LPS treated monocytes, at 0.01 µM for hIL10Ra_VHH14 - hIL2Rg_VHH19, linker GGSGGS, tag his (bispecific antibody, not shown: small tags and cut ends) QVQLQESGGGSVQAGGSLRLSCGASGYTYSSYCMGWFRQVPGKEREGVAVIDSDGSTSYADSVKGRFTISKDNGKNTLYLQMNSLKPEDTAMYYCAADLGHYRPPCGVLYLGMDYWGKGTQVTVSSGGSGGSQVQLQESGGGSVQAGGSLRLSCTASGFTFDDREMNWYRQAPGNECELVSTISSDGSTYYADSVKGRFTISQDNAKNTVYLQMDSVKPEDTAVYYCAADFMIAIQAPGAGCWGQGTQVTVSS , please?
6100
